Values were extracted from patent US20130243795A1.

Assign percent binding of the parent to each entry below.
target: T1, Human CD27 ECD (ECD 1-173, His6) (human, UniProt P26842 21-193, biotinylated on amine residues (NHS-ester) where used biotinylated); experiment: Fab ELISA; Fab captured by anti-Fd, biotinylated CD27 ECD at 0.2 nM
T1 construct: also called biotinylated human CD27 ECD
T1 sequence (P26842 other isoform, or with tags, fused parts or gaps limits assumed): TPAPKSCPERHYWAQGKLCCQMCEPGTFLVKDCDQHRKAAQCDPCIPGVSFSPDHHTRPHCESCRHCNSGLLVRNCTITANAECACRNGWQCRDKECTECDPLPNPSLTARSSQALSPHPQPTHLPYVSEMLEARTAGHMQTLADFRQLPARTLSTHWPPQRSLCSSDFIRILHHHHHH

Here's what some known entries look like.
binder	percent binding of the parent
M69-derived Fab with VL L260 (Fab, V domains shown, clone of library C27L35L2; pairing with parent H28 inferred) VH: EVQLVQSGAEVKKPGESLKISCKGSGYAFSSSWMNWVRQMPGKGLEWMGRIYPGDGDTNYSPSFQGQVTISADKSISTAYLQWSSLKASDTAMYYCARSDYYGDYGFAYWGQGTLVTVSS VL: DIVMTQSPDSLAVSLGERATINCKASQSVDWAGHSWMNWYQQKPGQPPKLLIYTASNLESGVPDRFSGSGSGTDFTLTISSLQAEDVAVYYCQQSNEDPYTFGQGTKLEIK	≥ 100%
M69-derived Fab with VH H243 (Fab, V domains shown, clone of library C27H28L2; pairing with parent L35 inferred) VH: EVQLVQSGAEVKKPGESLKISCKGSGYAFSSSWMNWVRQMPGKGLEWMGRIYGGDGDTNYSPSFQGQVTISADKSISTAYLQWSSLKASDTAMYYCARSDYYGDYGFAYWGQGTLVTVSS VL: DIVMTQSPDSLAVSLGERATINCKASQSVDYAGDSYMNWYQQKPGQPPKLLIYAASNLESGVPDRFSGSGSGTDFTLTISSLQAEDVAVYYCQQSNEDPYTFGQGTKLEIK	≥ 100%

Moving on to another binder below.
Note to self: percent binding of the parent recorded for M69-derived Fab with VH H238 (Fab, V domains shown, clone of library C27H28L2; pairing with parent L35 inferred) VH: EVQLVQSGAEVKKPGESLKISCKGSGYAFSSSWMNWVRQMPGKGLEWMGRIYVGDGDTNYSPSFQGQVTISADKSISTAYLQWSSLKASDTAMYYCARSDYYGDYGFAYWGQGTLVTVSS VL: DIVMTQSPDSLAVSLGERATINCKASQSVDYAGDSYMNWYQQKPGQPPKLLIYAASNLESGVPDRFSGSGSGTDFTLTISSLQAEDVAVYYCQQSNEDPYTFGQGTKLEIK was ≥ 100%
